Where do the numbers come from? From paper PMC4928820.

- Type: physicochemical
- Recorded conditions: 37 °C, surfactant (≤3% w/w water), mean ± SD, triplicate
Kind request: treat 40 mg/g as inclusive, so Thermodynamic solubility in Cremophor EL at 40 mg/g or higher is condition met, anything lower is condition not met.

Ask: Decide: is the reported value of Thermodynamic solubility in Cremophor EL for COc1cc(C)c(/C=C/C(C)=C/C=C/C(C)=C/C(=O)O)c(C)c1C [acitretin] equal to or greater than 40 mg/g?
Result: condition not met

Ask: OCCN(CCO)c1nc(N2CCCCC2)c2nc(N(CCO)CCO)nc(N3CCCCC3)c2n1 [dipyridamole] , same question.
Result: condition not met

Ask: Likewise for Cc1cc(-n2c(=O)[nH]c(=O)n(C)c2=O)ccc1Oc1ccc(SC(F)(F)F)cc1 [toltrazuril] ?
Result: condition not met

Ask: Try this compound too: CCOc1nc2cccc(C(=O)OC(C)OC(=O)OC3CCCCC3)c2n1Cc1ccc(-c2ccccc2-c2nnn[nH]2)cc1 (stereo not drawn) [candesartan cilexetil]
Result: condition not met

Ask: Item: O=C(Nc1ccc([N+](=O)[O-])cc1Cl)c1cc(Cl)ccc1O [niclosamide]
Result: condition met

Ask: # iterate: CCCCN(CCCC)CCC(O)c1cc2c(Cl)cc(Cl)cc2c2cc(C(F)(F)F)ccc12 (stereo not drawn) [halofantrine]
Result: condition not met

Ask: Check O=C(O)c1cc(-c2ccc(F)cc2F)ccc1O [diflunisal] too.
Result: condition met

Ask: Can you handle COC1=CC(=O)C[C@@H](C)[C@]12Oc1c(Cl)c(OC)cc(OC)c1C2=O [griseofulvin] next?
Result: condition not met

Ask: And for CCN(CC)C(=S)SSC(=S)N(CC)CC [disulfiram] ?
Result: condition met

Ask: Quick one: Cc1c(Cl)cccc1Nc1ccccc1C(=O)O [tolfenamic acid]
Result: condition met

Ask: Field entry: COc1ccc2c(c1)c(CC(=O)O)c(C)n2C(=O)c1ccc(Cl)cc1 [indomethacin]
Result: condition met

Ask: Similarly, CC(C)(Oc1ccc(C(=O)c2ccc(Cl)cc2)cc1)C(=O)O [fenofibric acid] ?
Result: condition met

Ask: Now the compound COc1ccc(Cl)cc1C(=O)NCCc1ccc(S(=O)(=O)NC(=O)NC2CCCCC2)cc1 [glibenclamide]
Result: condition not met

Ask: Clc1ccccc1C(c1ccccc1)(c1ccccc1)n1ccnc1 [clotrimazole] , same question.
Result: condition met

Ask: Let us now turn to CCCSc1ccc2nc(NC(=O)OC)[nH]c2c1 [albendazole]
Result: condition not met

Ask: Same question, O=C(C1CCCCC1)N1CC(=O)N2CCc3ccccc3C2C1 (stereo not drawn) [praziquantel] this time
Result: condition met

Ask: Likewise for Cc1cccc(Nc2ccccc2C(=O)O)c1C [mefenamic acid] ?
Result: condition not met

====

Can you tell me Thermodynamic solubility in Capmul MCM EP for the items I'm about to list?
- Format: physicochemical
- Recorded conditions: 37 °C, medium-chain mono-, di-, triglyceride, mean ± SD, triplicate
Answer with a number only, understood to be in mg/g.

Ask: Which Thermodynamic solubility in Capmul MCM EP value belongs to CCOc1nc2cccc(C(=O)OC(C)OC(=O)OC3CCCCC3)c2n1Cc1ccc(-c2ccccc2-c2nnn[nH]2)cc1 (stereo not drawn) ?
Result: 9.07

Ask: Please give the result for `CCCSc1ccc2nc(NC(=O)OC)[nH]c2c1` too.
Result: 3.17

Ask: Now consider `CCN(CC)C(=S)SSC(=S)N(CC)CC` and answer again.
Result: 47.2

====

- Assay type: physicochemical
- Recorded conditions: 37 °C, long-chain mono-, di-, triglyceride, mean ± SD, triplicate
Assay readout: Thermodynamic solubility in Maisine 35-1 (mg/g)
Give the number; mg/g is assumed, so skip it.

Ask: Look up Thermodynamic solubility in Maisine 35-1: CCOc1nc2cccc(C(=O)OC(C)OC(=O)OC3CCCCC3)c2n1Cc1ccc(-c2ccccc2-c2nnn[nH]2)cc1 (stereo not shown) [candesartan cilexetil]
Result: 1.99

Ask: Let us now turn to COc1ccc(Cl)cc1C(=O)NCCc1ccc(S(=O)(=O)NC(=O)NC2CCCCC2)cc1 [glibenclamide]
Result: 0.52

Ask: Item: CC(C)(Oc1ccc(CCNC(=O)c2ccc(Cl)cc2)cc1)C(=O)O [bezafibrate]
Result: 1.55

Ask: Next record, please: Cc1cc(-n2c(=O)[nH]c(=O)n(C)c2=O)ccc1Oc1ccc(SC(F)(F)F)cc1 [toltrazuril]
Result: 7.90

Ask: Next record, please: CCOC(=O)C1=C(C)NC(C)=C(C(=O)OC)C1c1cccc(Cl)c1Cl (stereo not shown) [felodipine]
Result: 37.7

Ask: Moving on to the next molecule: O=C(C1CCCCC1)N1CC(=O)N2CCc3ccccc3C2C1 (stereo not shown) [praziquantel]
Result: 85.9

Ask: One more molecule: O=C(O)c1cc(-c2ccc(F)cc2F)ccc1O [diflunisal]
Result: 31.6

Ask: Can you handle CCCCN(CCCC)CCC(O)c1cc2c(Cl)cc(Cl)cc2c2cc(C(F)(F)F)ccc12 (stereo not shown) [halofantrine] next?
Result: 71.2

Ask: Also, CC(C)/N=c1\cc2n(-c3ccc(Cl)cc3)c3ccccc3nc-2cc1Nc1ccc(Cl)cc1 [clofazimine] please.
Result: 11.7

Ask: Then what about the molecule Cc1cccc(Nc2ccccc2C(=O)O)c1C [mefenamic acid] ?
Result: 5.38

Ask: Can you check CCN(CC)C(=S)SSC(=S)N(CC)CC [disulfiram] next?
Result: 49.0

Ask: And for O=C(O)c1cc(/N=N/c2ccc(S(=O)(=O)Nc3ccccn3)cc2)ccc1O [sulfasalazine] ?
Result: 0.16

Ask: Can you check NC(=O)N1c2ccccc2C=Cc2ccccc21 [carbamazepine] next?
Result: 30.0

Ask: Repeat with CCCSc1ccc2nc(NC(=O)OC)[nH]c2c1 [albendazole]
Result: 3.86

Ask: What would you report for O=C(Nc1ccc([N+](=O)[O-])cc1Cl)c1cc(Cl)ccc1O [niclosamide] ?
Result: 3.97

Ask: Cool, now C#C[C@]1(O)CC[C@H]2[C@@H]3CCc4cc(O)ccc4[C@H]3CC[C@@]21C [ethinylestradiol]
Result: 22.1

Ask: // query: COc1cc(C)c(/C=C/C(C)=C/C=C/C(C)=C/C(=O)O)c(C)c1C [acitretin]
Result: 0.62

====

- Format: physicochemical
- Recorded conditions: 37 °C, surfactant (≤3% w/w water), mean ± SD, triplicate
Assay readout: Thermodynamic solubility in Cremophor EL (mg/g)
Could you give me the number in mg/g? Just the number is fine.

Ask: What value of Thermodynamic solubility in Cremophor EL has been recorded for this entry: NC(=O)N1c2ccccc2C=Cc2ccccc21 [carbamazepine]
Result: 34.5

Ask: Could you do the same for `COC(=O)Nc1nc2ccc(Sc3ccccc3)cc2[nH]1` , please?
Result: 2.07

Ask: Next record, please: `O=C(O)c1cc(/N=N/c2ccc(S(=O)(=O)Nc3ccccn3)cc2)ccc1O`
Result: 13.1

Ask: Also, CCOC(=O)C1=C(C)NC(C)=C(C(=O)OC)C1c1cccc(Cl)c1Cl (stereo not shown) please.
Result: 125.1

Ask: And then `COc1ccc2c(c1OC)C(=O)O[C@@H]2[C@H]1c2c(cc3c(c2OC)OCO3)CCN1C` , what is it?
Result: 12.3

Ask: Please do the same for CC(C)(Oc1ccc(CCNC(=O)c2ccc(Cl)cc2)cc1)C(=O)O [bezafibrate] as well.
Result: 37.9

Ask: Now give it for `CCOc1nc2cccc(C(=O)O)c2n1Cc1ccc(-c2ccccc2-c2nnn[nH]2)cc1` too.
Result: 11.3

Ask: How about this compound: CCC(C)n1ncn(-c2ccc(N3CCN(c4ccc(OCC5COC(Cn6cncn6)(c6ccc(Cl)cc6Cl)O5)cc4)CC3)cc2)c1=O (stereo not shown)
Result: 1.92

Ask: Okay, and `C#C[C@]1(O)CC[C@H]2[C@@H]3CCc4cc(O)ccc4[C@H]3CC[C@@]21C` ?
Result: 163.9

Ask: Next compound up: `O=C(CCCN1CCC(O)(c2ccc(Cl)cc2)CC1)c1ccc(F)cc1`
Result: 11.3

====

Would you mind telling me the reported Thermodynamic solubility in Carbitol of each entry?
- Type: physicochemical
- Recorded conditions: 37 °C, cosolvent, mean ± SD, triplicate

Ask: Look at this compound and give its reported Thermodynamic solubility in Carbitol. CC(C)(C)NC(=O)[C@@H]1C[C@@H]2CCCC[C@@H]2CN1C[C@@H](O)[C@H](Cc1ccccc1)NC(=O)[C@H](CC(N)=O)NC(=O)c1ccc2ccccc2n1 [saquinavir]
Result: ≥317 mg/g

Ask: Okay, and Cc1c(Cl)cccc1Nc1ccccc1C(=O)O [tolfenamic acid] ?
Result: 85.5 ± 4.29 mg/g

Ask: Continue with Clc1ccccc1C(c1ccccc1)(c1ccccc1)n1ccnc1 [clotrimazole]
Result: 135.0 ± 3.57 mg/g

Ask: And the next one, Cc1cc(-n2c(=O)[nH]c(=O)n(C)c2=O)ccc1Oc1ccc(SC(F)(F)F)cc1 [toltrazuril] ?
Result: 50.2 ± 2.47 mg/g
